As shown below, each of these compounds has a reported DPPS pKi value.
- STUDY TARGET: human DPPS (Homo sapiens)
- Construct: made in house
- Sequence (Q5T2R2 whole entry): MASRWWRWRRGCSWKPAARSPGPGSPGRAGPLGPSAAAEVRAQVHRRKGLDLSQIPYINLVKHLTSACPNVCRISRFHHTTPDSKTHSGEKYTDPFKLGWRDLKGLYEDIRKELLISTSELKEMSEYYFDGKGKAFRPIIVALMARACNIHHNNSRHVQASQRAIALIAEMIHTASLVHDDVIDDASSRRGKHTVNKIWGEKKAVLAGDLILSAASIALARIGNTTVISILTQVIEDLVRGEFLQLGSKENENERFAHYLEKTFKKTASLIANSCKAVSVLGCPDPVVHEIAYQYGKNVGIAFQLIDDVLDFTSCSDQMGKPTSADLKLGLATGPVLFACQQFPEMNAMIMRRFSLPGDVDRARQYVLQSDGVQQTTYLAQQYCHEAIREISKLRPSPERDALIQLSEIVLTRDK
- Sequence (Q86YH6 whole entry partner): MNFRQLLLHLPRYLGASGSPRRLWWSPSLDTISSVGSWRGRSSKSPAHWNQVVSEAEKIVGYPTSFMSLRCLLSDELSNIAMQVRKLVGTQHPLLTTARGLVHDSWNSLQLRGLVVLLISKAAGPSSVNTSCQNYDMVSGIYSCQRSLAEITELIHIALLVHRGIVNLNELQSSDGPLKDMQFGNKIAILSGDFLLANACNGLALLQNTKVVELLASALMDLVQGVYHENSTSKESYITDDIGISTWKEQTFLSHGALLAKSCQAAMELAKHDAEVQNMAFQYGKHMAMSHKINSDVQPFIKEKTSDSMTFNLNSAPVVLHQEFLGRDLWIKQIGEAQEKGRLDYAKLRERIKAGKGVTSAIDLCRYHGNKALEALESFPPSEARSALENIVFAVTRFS
- ASSAY PROCEDURE: human DPPS enzyme inhibition
- Assay type: biochemical
- ASSAY CONDITIONS: Table 1, experimental
Respond using a number only.

Consider the worked cases shown below.
compound="O=P([O-])(O)C(O)(C[n+]1ccccc1)P(=O)(O)O (stereo not drawn)" data_value=7.2
compound=O=P(O)(O)C(O)(Cc1cnc2ccccn12)P(=O)(O)O data_value=6.8

Continue with the next compound.
The compound listed as O=P([O-])(O)C(C[n+]1cccc(-c2ccccc2)c1)P(=O)(O)O (stereo not drawn) has a reported DPPS pKi of 7.1
